These entries and their values trace back to patent US12624044B2.

- Experimental target: SMARCA4 (Homo sapiens)
- Construct: SMARCA2 and SMARCA4 protein degradation in MV4-11 cells; endogenous in cells; host or cells: MV4-11
- Assay name: SMARCA4 Western blot MV4-11 degradation
- Assay type: cell-based
- Condition description: MV4-11 cells, 24 h, read-out: SMARCA4 WB MV411 degradation 24 h: Average external-Abs DC50
Endpoint name: DC50

// assay SMARCA4 (Homo sapiens), entry Cc1ncsc1-c1ccc(CNC(=O)[C@@H]2C[C@@H](O)CN2C(=O)[C@@H](NC(=O)[C@H]2CC3(C2)C[C@H](c2ccc(CN4CCC(Cn5cc(-c6cc(-c7ccccc7O)nnc6N)cn5)CC4)cc2)C3)C(C)(C)C)cc1 (some centres unmarked) , DC50 value = < 100 nM

Reported SMARCA4 (Homo sapiens) DC50 for item Cc1ncsc1-c1ccc(CNC(=O)[C@@H]2C[C@@H](O)CN2C(=O)[C@@H](NC(=O)CCCC#Cc2cnc(N3C4CCC3CN(c3cc(-c5ccccc5O)nnc3N)C4)nc2)C(C)(C)C)cc1 was < 100 nM

Measured on SMARCA4 (Homo sapiens), Cc1ncsc1-c1ccc(CNC(=O)[C@@H]2C[C@@H](O)CN2C(=O)[C@@H](NC(=O)[C@H]2C[C@]3(C[C@H](CN4CCC(c5cnc(N6C7CCC6CN(c6cc(-c8ccccc8O)nnc6N)C7)nc5)CC4)C3)C2)C(C)(C)C)cc1 (some centres unmarked) has a documented DC50 of 100 to 500 nM

Bench note, SMARCA4 (Homo sapiens): CC(=O)Nc1cc(-c2scnc2C)ccc1CNC(=O)[C@@H]1C[C@@H](O)CN1C(=O)[C@@H](NC(=O)[C@H]1CC[C@H](c2cnc(N3C4CCC3CN(c3cc(-c5ccccc5O)nnc3N)C4)nc2)CC1)C(C)(C)C , DC50 reads < 100 nM

Fill in: SMARCA4 (Homo sapiens) DC50 for Cc1ncsc1-c1ccc(CNC(=O)[C@@H]2C[C@@H](O)CN2C(=O)[C@@H](NC(=O)[C@@H](C)N2CCC(c3cnc(N4C5CCC4CN(c4cc(-c6ccccc6O)nnc4N)C5)nc3)CC2)C(C)(C)C)cc1 = > 1000 nM

---

- Experimental target: SMARCA4 (Homo sapiens, UniProt P51532)
- Construct: SMARCA2 and SMARCA4 protein degradation in MV4-11 cells; endogenous in cells; host or cells: MV4-11
- Sequence (P51532 whole entry): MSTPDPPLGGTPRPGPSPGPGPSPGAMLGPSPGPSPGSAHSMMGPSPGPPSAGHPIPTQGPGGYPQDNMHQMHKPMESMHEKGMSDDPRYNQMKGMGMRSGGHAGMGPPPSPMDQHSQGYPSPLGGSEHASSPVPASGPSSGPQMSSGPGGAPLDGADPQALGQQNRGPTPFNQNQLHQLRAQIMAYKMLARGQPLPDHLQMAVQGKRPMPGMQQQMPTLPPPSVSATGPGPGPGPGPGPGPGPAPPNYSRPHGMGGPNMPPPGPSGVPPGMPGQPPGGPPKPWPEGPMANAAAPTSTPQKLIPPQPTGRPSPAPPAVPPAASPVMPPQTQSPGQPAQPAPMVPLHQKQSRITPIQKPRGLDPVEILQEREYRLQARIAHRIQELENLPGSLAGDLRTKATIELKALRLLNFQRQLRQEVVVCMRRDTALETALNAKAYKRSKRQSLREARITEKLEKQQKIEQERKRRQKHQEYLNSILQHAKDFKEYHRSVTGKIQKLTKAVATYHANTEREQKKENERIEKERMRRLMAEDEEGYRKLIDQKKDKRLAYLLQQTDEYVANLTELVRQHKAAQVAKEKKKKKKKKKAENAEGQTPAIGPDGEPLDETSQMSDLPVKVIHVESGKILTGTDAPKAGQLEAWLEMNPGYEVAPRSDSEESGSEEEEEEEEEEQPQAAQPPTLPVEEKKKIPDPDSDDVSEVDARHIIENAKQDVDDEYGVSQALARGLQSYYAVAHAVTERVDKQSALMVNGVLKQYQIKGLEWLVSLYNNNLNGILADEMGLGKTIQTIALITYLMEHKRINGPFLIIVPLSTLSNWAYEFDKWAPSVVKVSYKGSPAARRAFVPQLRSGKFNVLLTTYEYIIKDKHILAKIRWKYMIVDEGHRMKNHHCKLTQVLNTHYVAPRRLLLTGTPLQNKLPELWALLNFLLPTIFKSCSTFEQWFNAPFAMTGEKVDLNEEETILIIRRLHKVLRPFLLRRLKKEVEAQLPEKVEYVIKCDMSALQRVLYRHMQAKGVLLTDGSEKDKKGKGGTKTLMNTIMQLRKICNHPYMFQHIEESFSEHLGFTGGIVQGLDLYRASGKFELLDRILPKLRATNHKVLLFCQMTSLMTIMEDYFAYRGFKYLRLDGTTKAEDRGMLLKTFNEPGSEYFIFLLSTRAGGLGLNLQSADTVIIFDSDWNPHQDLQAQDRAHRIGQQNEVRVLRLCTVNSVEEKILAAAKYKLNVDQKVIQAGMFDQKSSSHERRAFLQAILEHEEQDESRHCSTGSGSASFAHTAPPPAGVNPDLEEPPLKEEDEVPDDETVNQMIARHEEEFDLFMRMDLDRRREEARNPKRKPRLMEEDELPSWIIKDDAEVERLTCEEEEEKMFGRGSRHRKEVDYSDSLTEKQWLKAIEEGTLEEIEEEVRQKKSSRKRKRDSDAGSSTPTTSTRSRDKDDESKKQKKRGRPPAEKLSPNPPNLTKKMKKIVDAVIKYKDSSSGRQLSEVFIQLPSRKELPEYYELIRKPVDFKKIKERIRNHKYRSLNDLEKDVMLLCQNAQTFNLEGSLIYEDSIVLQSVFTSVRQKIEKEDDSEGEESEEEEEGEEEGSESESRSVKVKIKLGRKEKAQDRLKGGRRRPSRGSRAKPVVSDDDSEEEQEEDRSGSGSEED
- Assay name: SMARCA4 Western blot MV4-11 degradation
- Assay type: cell-based
- Condition description: MV4-11 cells, 24 h, read-out: SMARCA4 WB MV411 degradation 24 h: Average external-Abs DC50
Consider the following compounds; for each one, report its DC50.

Documented DC50 of Cn1c(=O)n(C2CCC(=O)NC2=O)c2ccc([C@H]3CC[C@H](N4CCC(c5cnc(N6C7CCC6CN(c6cc(-c8ccccc8O)nnc6N)C7)nc5)CC4)CC3)cc21 (stereo partly drawn) [I-291] : < 0.1 µM

DC50 for Cc1ncsc1-c1ccc(CNC(=O)[C@@H]2C[C@@H](O)CN2C(=O)C(NC(=O)C[C@H]2CC[C@@H](N3CCC(c4cnc(N5C6CCC5CN(c5cc(-c7ccccc7O)nnc5N)C6)nc4)CC3)CC2)C(C)(C)C)cc1 (stereo partly drawn) [I-346] is < 0.1 µM

# DC50 (compound: Cc1ncsc1-c1ccc(CNC(=O)[C@@H]2C[C@@H](O)CN2C(=O)[C@@H](NC(=O)CCCCN2CCC(c3cnc(N4C5CCC4CN(c4cc(-c6ccccc6O)nnc4N)C5)nc3)CC2)C(C)(C)C)cc1 [I-383] ) is > 1 µM

---

- Experimental target: SMARCA2 (Homo sapiens, UniProt P51531)
- Sequence (P51531 whole entry): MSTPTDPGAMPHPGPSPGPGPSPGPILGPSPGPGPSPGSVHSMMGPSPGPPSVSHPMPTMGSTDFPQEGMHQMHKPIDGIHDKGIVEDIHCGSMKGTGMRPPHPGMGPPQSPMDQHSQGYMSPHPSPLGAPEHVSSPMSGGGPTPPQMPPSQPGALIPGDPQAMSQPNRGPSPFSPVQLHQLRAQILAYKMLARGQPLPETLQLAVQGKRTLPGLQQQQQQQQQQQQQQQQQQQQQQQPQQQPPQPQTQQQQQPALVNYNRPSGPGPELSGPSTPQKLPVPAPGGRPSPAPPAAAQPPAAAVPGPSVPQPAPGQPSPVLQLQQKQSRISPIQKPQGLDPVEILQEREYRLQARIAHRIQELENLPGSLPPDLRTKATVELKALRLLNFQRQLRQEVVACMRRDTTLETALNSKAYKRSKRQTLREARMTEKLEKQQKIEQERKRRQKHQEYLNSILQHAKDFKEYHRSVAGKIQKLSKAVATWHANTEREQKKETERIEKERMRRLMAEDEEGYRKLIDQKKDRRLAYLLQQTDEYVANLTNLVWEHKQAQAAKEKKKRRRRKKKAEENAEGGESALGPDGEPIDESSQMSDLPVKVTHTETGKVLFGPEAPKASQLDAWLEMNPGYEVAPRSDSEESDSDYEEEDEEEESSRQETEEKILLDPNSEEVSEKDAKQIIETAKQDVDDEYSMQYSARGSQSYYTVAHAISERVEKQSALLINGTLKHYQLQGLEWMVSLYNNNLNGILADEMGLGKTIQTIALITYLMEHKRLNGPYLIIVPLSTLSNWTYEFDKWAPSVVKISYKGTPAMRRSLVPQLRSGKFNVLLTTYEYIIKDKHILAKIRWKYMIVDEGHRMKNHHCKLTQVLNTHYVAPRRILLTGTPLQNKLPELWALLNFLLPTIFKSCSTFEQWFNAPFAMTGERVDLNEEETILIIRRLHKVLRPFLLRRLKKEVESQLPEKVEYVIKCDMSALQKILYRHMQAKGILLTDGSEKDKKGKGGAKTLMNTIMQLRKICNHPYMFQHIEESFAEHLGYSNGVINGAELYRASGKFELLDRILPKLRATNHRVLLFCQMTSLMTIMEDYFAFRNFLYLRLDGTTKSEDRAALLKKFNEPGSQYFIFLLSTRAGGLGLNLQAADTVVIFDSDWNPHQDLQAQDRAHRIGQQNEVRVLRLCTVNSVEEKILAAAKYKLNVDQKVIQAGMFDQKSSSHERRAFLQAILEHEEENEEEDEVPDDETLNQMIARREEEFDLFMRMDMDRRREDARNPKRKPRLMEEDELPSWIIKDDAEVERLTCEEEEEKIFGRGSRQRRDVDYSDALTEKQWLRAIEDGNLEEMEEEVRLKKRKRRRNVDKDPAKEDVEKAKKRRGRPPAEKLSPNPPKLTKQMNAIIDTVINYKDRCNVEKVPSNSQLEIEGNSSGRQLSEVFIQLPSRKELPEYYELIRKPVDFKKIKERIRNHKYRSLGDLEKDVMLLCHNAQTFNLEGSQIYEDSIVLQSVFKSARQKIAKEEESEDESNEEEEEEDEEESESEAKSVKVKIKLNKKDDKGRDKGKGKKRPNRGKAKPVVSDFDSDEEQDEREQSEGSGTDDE
- Assay name: MSD SMARCA2 degradation in A549 cell line
- Type: cell-based
- Condition description: A549, A549 cells, 24 h
Endpoint name: Dmax

Per the record, Cc1ncsc1-c1ccc(CNC(=O)[C@@H]2C[C@@H](O)CN2C(=O)[C@@H](NC(=O)C2CCC(c3cnc(N4C5CCC4CN(c4cc(-c6ccccc6O)nnc4N)C5)nc3)CC2C)C(C)(C)C)cc1 (stereo partly drawn) [I-411] has Dmax of 50 to 70%

Item: Cc1ncsc1-c1ccc(CNC(=O)[C@@H]2C[C@@H](O)CN2C(=O)[C@@H](NC(=O)[C@H]2CC[C@H](N3CCC(CN4CCC(Cn5cc(-c6cc(-c7ccccc7O)nnc6N)cn5)CC4)CC3)CC2)C(C)(C)C)cc1 [I-397] | Dmax: < 50%

Notebook: Cn1c(=O)n(C2CCC(=O)NC2=O)c2ccc(CCCCCCCc3nccc(N4C5CCC4CN(c4cc(-c6ccccc6O)nnc4N)C5)n3)cc21 (stereo not drawn) [I-287] , Dmax read as 70 to 90%

---

- Experimental target: SMARCA2 (Homo sapiens, UniProt P51531)
- Assay name: MSD SMARCA2 degradation in NCI-H1299 cell line (24 h)
- Type: cell-based
- Parameters: HC: NCI-H1299 cells treated with DMSO; host or cells: NCI-H1299
- Condition description: NCI-H1299 cells, read-out: SMARCA2 MSD H1299 degradation 24 h: External Abs-DC50
- Procedure: Example 32. MSD SMARCA2 Degradation in […] Cell Line Cell Culture: Cells were cultured in exponential growth phase. Compound Preparation and Treatment: NCI-H1299 cells were seeded into the 96-well plate at 4.0*10^4 cells per 100 ul per well. […] MSD Procedure: The MSD plate was coated with 40 ul cell lysate and incubated at 4° C. overnight. […] MSD plate was washed 3 times with 150 ul 1×TBST per well and 2×MSD reading buffer was added, 150 ul per well, and diluted from 4× with water. […]
Endpoint name: DC50

Sample CN[C@@H](C)C(=O)N[C@H](C(=O)N1Cc2cc(OCCOCCOCCOCCNC(=O)c3ccc(C(C)n4cc(-c5cc(-c6ccccc6O)nnc5N)cn4)cc3)ccc2C[C@H]1C(=O)N[C@@H]1CCCc2ccccc21)C(C)(C)C (some centres unmarked) [I-208] , system: SMARCA2 (Homo sapiens, UniProt P51531). Its DC50 is > 1000 nM

Per the reported SMARCA2 (Homo sapiens, UniProt P51531) data, CN[C@@H](C)C(=O)N[C@H](C(=O)N1Cc2cc(OCCOCCOCCNC(=O)CCCOc3cccc(N4C[C@H]5C[C@@H]4CN5/C=C/C(=O)c4ccccc4O)n3)ccc2C[C@H]1C(=O)N[C@@H]1CCCc2ccccc21)C(C)(C)C [I-200] has DC50 of > 1000 nM

---

What Dmax was measured for each of the following?
- Experimental target: SMARCA4 (Homo sapiens)
- Construct: SMARCA2 and SMARCA4 protein degradation in MV4-11 cells; endogenous in cells; host or cells: MV4-11
- Assay name: SMARCA4 Western blot MV4-11 degradation
- Assay type: cell-based
- Condition description: MV4-11, MV4-11 cells, 24 h, read-out: SMARCA4 WB MV411 degradation 24 h: Average Dmax %

// field: Dmax; key: Cc1ncsc1-c1ccc(CNC(=O)[C@@H]2C[C@@H](O)CN2C(=O)[C@@H](NC(=O)[C@H]2CC[C@H](Cc3ccc(-c4cnc(N5C6CCC5CN(c5cc(-c7ccccc7O)nnc5N)C6)nc4)cc3)CC2)C(C)(C)C)cc1 [I-437] ; value = > 90%

compound Cc1ncsc1-c1ccc(CNC(=O)[C@@H]2C[C@@H](O)CN2C(=O)[C@@H](NC(=O)CCCCN2CCC(CN3CCC(Cn4cc(-c5cc(-c6ccccc6O)nnc5N)cn4)CC3)CC2)C(C)(C)C)cc1 [I-351] , Dmax observed: < 50%

Measured Dmax of Nc1nnc(-c2ccccc2O)cc1-c1cnn(C2CCN([C@H]3CC[C@H](CNc4ccc5c(c4)C(=O)N(C4CCC(=O)NC4=O)C5=O)CC3)CC2)c1 (stereo partly drawn) [I-325] : 70 to 90%

Recorded result, Cc1ncsc1-c1ccc(CNC(=O)[C@@H]2C[C@@H](O)CN2C(=O)[C@@H](NC(=O)C2CCC(c3cnc(N4C5CCC4CN(c4cc(-c6ccccc6O)nnc4N)C5)nc3)CC2)C(C)(C)C)cc1 (stereo partly drawn) [I-503] , Dmax: > 90%

Sample Cc1ncsc1-c1ccc(CNC(=O)[C@@H]2C[C@@H](O)CN2C(=O)[C@@H](NC(=O)C2CC3(C2)CC(N2CCC(n4cc(-c5cc(-c6ccccc6O)nnc5N)cn4)CC2)C3)C(C)(C)C)cc1 (stereo partly drawn) [I-329] ; Dmax observed: > 90%

get_value(item= Cn1c(=O)n(C2CCC(=O)NC2=O)c2ccc(CC(=O)N3CCN(Cc4cnc(N5C6CCC5CN(c5cc(-c7ccccc7O)nnc5N)C6)nc4)CC3)cc21 (stereo not drawn) [I-294] , readout=Dmax) returns > 90%

Entry under test: Cn1c(=O)n(C2CCC(=O)NC2=O)c2cccc(C#CCN3CCCC(c4cnc(N5C6CCC5CN(c5cc(-c7ccccc7O)nnc5N)C6)nc4)C3)c21 (stereo not drawn) [I-300] . Its Dmax was 70 to 90%

Sample Cc1ncsc1-c1ccc(CNC(=O)[C@@H]2C[C@@H](O)CN2C(=O)[C@@H](NC(=O)c2ccc(N3CCC(n4cc(-c5cc(-c6ccccc6O)nnc5N)cn4)CC3)cc2)C(C)(C)C)cc1 [I-515] ; Dmax observed: > 90%

Just so you know, measured Dmax for Cc1ncsc1-c1ccc(CNC(=O)[C@@H]2C[C@@H](O)CN2C(=O)[C@@H](NC(=O)[C@H]2CC[C@H](c3cnc(N4C5CCC4CN(c4cc(-c6ccccc6O)nnc4N)C5)nc3)CC2)C(C)(C)C)c(C(=O)N(C)C)c1 [I-431] came out at > 90%

Recorded result, NCC#Cc1cnc(N2C3CCC2CN(c2cc(-c4ccccc4O)nnc2N)C3)nc1 [I-535] , Dmax: < 50%

Item: Cc1ncsc1-c1ccc(CNC(=O)[C@@H]2C[C@@H](O)CN2C(=O)[C@@H](NC(=O)[C@H]2CC3(C2)C[C@H](N2CCC(n4cc(-c5cc(-c6ccccc6O)nnc5N)cn4)CC2)C3)C(C)(C)C)cc1 (stereo partly drawn) [I-389] | Dmax: 70 to 90%

Entry Nc1nnc(-c2ccccc2O)cc1-c1cnn(C2CCN(C3CCC(Nc4ccc5c(c4)C(=O)N(C4CCC(=O)NC4=O)C5=O)CC3)CC2)c1 (stereo not drawn) [I-323] ; Dmax = > 90%

Record summary for Cn1c(=O)n(C2CCC(=O)NC2=O)c2ccc(CCCN3CCC(c4cnc(N5CCN(c6cc(-c7ccccc7O)nnc6N)CC5)nc4)CC3)cc21 (stereo not drawn) [I-288] : reported Dmax = > 90%

Kindly note the recorded Dmax for Cc1ncsc1-c1ccc(CNC(=O)[C@@H]2C[C@@H](O)CN2C(=O)[C@@H](NC(=O)[C@H]2CC[C@H](CCCCCN3CCC(Cn4cc(-c5cc(-c6ccccc6O)nnc5N)cn4)CC3)CC2)C(C)(C)C)cc1 [I-378] , which is > 90%

Record Cc1ncsc1-c1ccc(CNC(=O)[C@@H]2C[C@@H](O)CN2C(=O)[C@@H](NC(=O)CCCCN2CCC(C(=O)N3CCC(Cn4cc(-c5cc(-c6ccccc6O)nnc5N)cn4)CC3)CC2)C(C)(C)C)cc1 [I-352] , field Dmax: < 50%

Sample Nc1nnc(-c2ccccc2O)cc1-c1cnn(C2CCN(C3CCC(CNc4cccc5c4C(=O)N(C4CCC(=O)NC4=O)C5=O)CC3)CC2)c1 (stereo not drawn) [I-324] ; Dmax observed: 70 to 90%

# Dmax (compound: Cc1ncsc1-c1ccc(CNC(=O)[C@@H]2C[C@@H](O)CN2C(=O)[C@@H](NC(=O)c2ccc(N3CC(n4cc(-c5cc(-c6ccccc6O)nnc5N)cn4)C3)cc2)C(C)(C)C)cc1 [I-514] ) is > 90%

Consider CC(C)(C)[C@H](NC(=O)C1(F)CC1)C(=O)N1C[C@H](O)C[C@H]1C(=O)NCc1ccc(-c2scnc2-c2ccc3cn[nH]c3c2)cc1OCCc1ccc(CN2CCN(c3cc(-c4ccccc4O)nnc3N)CC2)cc1 [I-447] . Its measured Dmax is > 90%

// field: Dmax; key: Cc1ncsc1-c1ccc(CNC(=O)[C@@H]2C[C@@H](O)CN2C(=O)[C@@H](NC(=O)[C@H]2CC[C@@H](c3cnc(N4C5CCC4CN(c4cc(-c6ccccc6O)nnc4N)C5)nc3)CC2)C(C)(C)C)cc1 [I-336] ; value = > 90%

The compound identified as Cn1c(=O)n(C2CCC(=O)NC2=O)c2ccc([C@H]3CC[C@H](N4CCC(c5nccc(N6C7CCC6CN(c6cc(-c8ccccc8O)nnc6N)C7)n5)CC4)CC3)cc21 (stereo partly drawn) [I-280] registered its Dmax at > 90%

Memo: Cn1c(=O)n(C2CCC(=O)NC2=O)c2ccc([C@H]3CC[C@@H](N4CCC(c5cnc(N6C7CCC6CN(c6cc(-c8ccccc8O)nnc6N)C7)nc5)CC4)CC3)cc21 (stereo partly drawn) [I-277] , reported Dmax: > 90%
